Assay: qHTS assay to test for compound auto fluorescence at 535 nm (green) in HepG2 cell free culture (AID 720686); note: % is set by controls: 0 for no effect and ±100 for the full control effect
Conditions: Cell-free medium, green autofluorescence 485/535 nm; series mostly up to 91.3 µM
Active and inactive are the calls of the source. Calls come from the whole dose curve; as a rule, active = well fitted curve in the direction sought with a large enough effect in the repeat runs; inconclusive = weak or mixed curves; inactive = flat fitted curve, though single readings scatter.
MEASURED METRIC: fluorescence, % of fluorescein control

- O=S(=O)(O)c1cccc2c(S(=O)(=O)O)cccc12: inactive
- CCCCOC(=O)CCC(C)=O: inactive
- FB(F)F: inactive
- CCCC(C)C(=O)OCC (stereo not drawn): inactive
- C[N+]1(C)CCCC(OC(=O)C(O)(c2ccccc2)c2ccccc2)C1 (stereo not drawn): -0.0015% [at 18.6 µM] (inactive)
- COC(=O)Nc1ccc(Cl)c(Cl)c1: inactive
- CC(C)C1CCC(O)CC1 (stereo not drawn): inactive
- CO[C@@]1(NC(=O)CSC[C@@H](N)C(=O)O)C(=O)N2C(C(=O)O)=C(CSc3nnnn3C)CS[C@@H]21: inactive
- Cc1ccnc(NS(=O)(=O)c2ccc(N)cc2)n1: 0.0314% [at 18.6 µM] (inactive)
- CC(C#N)(CCC(=O)O)N=NC(C)(C#N)CCC(=O)O (stereo not drawn): inactive
- CC(C)COC(=O)c1ccc(N)cc1: inactive
- O=C(CO)[C@@H](O)[C@H](O)[C@H](O)CO: inactive
- Cc1ccc(C(=O)c2ccccc2)cc1: inactive
